Documented INHIBITION across a set of compounds
Tested on: Plasmodium falciparum
Assay: Screen against P. falciparum Asexual Blood Stage (ABS), at 5uM
Format: functional, Dd2
Conditions: tested at 5 uM
Hit rate of the full screen: of about 65,000 compounds, about 2,100 (3.2%) showed an effect of 50% or more. The median lay at about -52%. The full list was thinned out, with strong results kept by preference.
Readout Name: INHIBITION (%)

* Fc1cnc(N2CC3(CCN(Cc4ccsc4)C3)C2)nc1 | 3.41
* CCc1cnc(N2CC3(CCN(Cc4ccsc4)C3)C2)nc1 | -19.4
* O=C(Nc1cccnc1)[C@H]1C[C@H]2OCC[C@H]2N(CC2CC2)C1 | -67.1
* CN[C@@H]1CCC[C@@H](Oc2ccccc2Oc2ccc(C)cc2)[C@@H]1O | 90.3
* O=C1C[C@@H]2CC[C@H](CN1)N2C1CSCCSC1 | -45.6
* CC(C)CCN1C[C@@H]2OCCN(c3ncc(F)cn3)[C@@H]2C1 | -2.26
* Cc1ccc(Oc2cc(F)ccc2O[C@@H]2CCC[C@@H](N)[C@H]2O)cc1 | 91.1
* Cc1ccc(-n2cnnn2)cc1NCC(=O)Nc1ccccc1Cl | 79.3
* N[C@@H]1CCC[C@@H](Oc2ccc(F)cc2Oc2ccccc2)[C@@H]1O | 77.4
* COCCN1CCC2(C1)CN(c1ncc(F)cn1)C2 | -81.1
* O=C(c1cc(-n2cnnn2)ccc1Cl)N1CCC2(CC1)OCCO2 | -29.7
* c1ccc(CN2CCO[C@H]3[C@H](OCCN4CCCC4)CC[C@@H]32)nc1 | 30
* CC(C)c1nn(C)c(Cl)c1CNCC(O)c1cccc(F)c1 (stereo not drawn) | 82.4
* Cc1noc(C)c1CN1CC[C@H]2C[C@H](c3ccncn3)O[C@@H]2C1 | -66.9
* CCN(CC)C(=O)c1ccc(NC(=O)CNc2ccc(Br)cc2F)cc1 | -171
* Cc1ccc(-n2cnnn2)cc1NCC(=O)Nc1cc(F)ccc1F | 72.3
* O=C(Nc1cc(C(F)(F)F)c[nH]c1=O)C1CCCN1 (stereo not drawn) | -151
* O=C(c1cccc(-n2cnnn2)c1)N1CCC2(CC1)OCCO2 | -24.5
* Cc1c[nH]c(CN2CCC3(CCCN(Cc4ccc(F)c(F)c4)C3)C2)n1 (stereo not drawn) | 80.3
* CCc1ncc(CN2CCC3(CCCN(CC4CCC4)C3)C2)cn1 (stereo not drawn) | 8.28
* O=C(C1CCC1)N1CCC2(CCNCC2)C1 | -39.1
* Cc1ncc(CN2CCC3(CCCN(CC4CCC4)C3)C2)cn1 (stereo not drawn) | -45.2
* CCN(CC)C(=O)c1ccc(NC(=O)CNc2ccc(F)cc2Cl)cc1 | -91.8

* * *

Test system: Plasmodium falciparum
Test: Screen against P. falciparum Asexual Blood Stage (ABS), at 5uM
Assay type: functional, Dd2
Conditions: tested at 5 uM
About 2,100 (3.2%) of roughly 65,000 compounds showed an effect of 50% or more. The median lay at about -52%. The list comes from a sample in which strong results are over-represented; it also holds close analogues and randomly drawn compounds.
Readout Name: INHIBITION

* CCOC(=O)C1(Cc2ccccc2)CCCN(Cc2nccn2CC)C1 (configuration not stated) | 71.1%
* CCn1ccnc1CN1CCCN(C(=O)Cc2ccc(C)nc2)CC1 | -85.3%
* Cc1cnc(N2CCC[C@@H]3CN(CC(=O)N(C)C)C[C@@H]32)nc1 | -22.5%
* C[C@@H]1CN(C2CCOC2)C[C@]12CCN(Cc1cccnc1)C2=O (some centres not stated) | -45.9%
* Cc1ccc2c(n1)N(CC1CC1)CCN(Cc1ccco1)C2 | -45.2%
* CC(C)NC(=O)[C@H]1C[C@@H]2[C@@H](C1)OCCN2Cc1cccnc1 | -95.4%
* CN1CCC2(Cc3ccccc3NC2=O)C1 (configuration not stated) | 8.23%
* CC1CN(C)CCN1C(=O)Cc1cc(Cl)c2c(c1)OCCO2 (configuration not stated) | -23.7%
* CC(C)c1nccc([C@H]2C[C@@H]3CCN(Cc4ccco4)C[C@H]3O2)n1 | -19.7%
* N#Cc1ccc(NC2CCN(c3ncccn3)CC2)cc1Cl | -47.7%
* CCCN1C[C@@H]2CC[C@H]1CN(C(=O)Cn1c(C)cc(C)nc1=O)C2 | -79.2%
* Cc1cccnc1CC(C)N(C)Cc1cccs1 (configuration not stated) | 81.7%
* O=C(c1ccco1)N1C[C@H]2CCCN(Cc3ccncc3)[C@H]2C1 | -19.6%
* Cc1ccc2c(n1)N(CC1CC1)CCN(S(=O)(=O)C1CC1)C2 | -28.5%
* Cc1ccc(CN2CC[C@@H]3[C@H]2CCC(=O)N3Cc2ccncc2)s1 | -6.15%
* COC(=O)N1CCC(Nc2ccc(C#N)c(Cl)c2)C1 (configuration not stated) | 22.4%
* CN(C)C(=O)CN1CCCC2(CCN(c3ccc(C#N)cn3)C2)C1 (configuration not stated) | -51.1%
* N[C@H]1CN(CCCOc2ccccc2)C[C@@H]1C1CC1 | 86.8%
* CC1C(=O)Nc2cccnc2N1S(=O)(=O)c1ccc(C#N)c(Cl)c1 (configuration not stated) | -88.9%
* COCCN1C[C@H]2[C@@H](C1)N(C(=O)COc1ccccc1)CC[C@H]2OC | -98.8%
* COCCN1C[C@H]2CCC[C@@H](CNc3ncccn3)[C@H]2C1 | 23.6%
* CCn1ccnc1CN1CCCC(CO)(Cc2cccc(Cl)c2)C1 (configuration not stated) | 76.8%
